FYI, the data here is from paper PMC4549042.

target: rh-procaspase-3 (Homo sapiens); construct: purchased R&D System (Minneapolis, USA); test: Assay of zinc inhibition of procaspase-3 activation; format: biochemical; settings: PC3 + 5 μM ZnSO4; read-out: EC50 of procaspase-3 activation in zinc-containing buffer
Property Measured: EC50 (nM)
The response must be a number in nM with no trailing unit.

Ask | Requested read-out: EC50. Entry: O=C(CN1CCN(Cc2nc(-c3ccc(COc4ccc(Cl)cc4)cc3)no2)CC1)N/N=C/c1ccc(OCc2csc(Cc3ccc4c(c3)OCO4)n2)cc1O [C2]
Reply | 2490

----------
For each record, write down the corresponding EC50.
Biological target: rh-procaspase-3 (Homo sapiens)
Construct: purchased R&D System (Minneapolis, USA)
Sequence (P42574 1-277): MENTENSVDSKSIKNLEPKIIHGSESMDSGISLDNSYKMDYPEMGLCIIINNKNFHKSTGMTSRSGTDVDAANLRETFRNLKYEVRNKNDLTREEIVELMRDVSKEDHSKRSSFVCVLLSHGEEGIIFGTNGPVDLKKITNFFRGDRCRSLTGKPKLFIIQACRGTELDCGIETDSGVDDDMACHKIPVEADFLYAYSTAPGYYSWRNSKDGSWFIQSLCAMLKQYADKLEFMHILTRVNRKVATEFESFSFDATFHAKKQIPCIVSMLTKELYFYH
Experiment: Caspase-3 activation assay (procaspase-3 activation in vitro)
Assay type: biochemical
Details: rh-procaspase-3, concentrations 0.08–100 μM
Note to self: number, then unit, no commentary.

Ask | Requested read-out: EC50. Entry: O=C(CN1CCN(Cc2nc(-c3ccc(COc4ccc(Cl)cc4)cc3)no2)CC1)N/N=C/c1ccc(OCc2csc(Cc3ccc4c(c3)OCO4)n2)cc1O
Reply | 0.56 µM

Ask | Requested read-out: EC50. Entry: C=CCc1cccc(/C=N/NC(=O)CN2CCN(Cc3ccccc3)CC2)c1O
Reply | 6.02 µM
